Origin of the recorded values: patent US11311624B2

# PROTOCOL_TEXT: Tissue concentration partitioning (plasma, mesenteric lymph node, fat) after single oral dose in Maisine, LC-MS/MS
# Format: in vivo
# CONDITION_INFO: mouse, mesenteric lymph node / plasma; mice, single oral 10 mg in Maisine, between time points 0.5, 2, and 4 hours; read-out: lymph/plasma ratios
READOUT: Kp

Kp measured on O=C(NCCCCCCCCCCCNC(=O)c1ccccc1)c1ccccc1 [Compound 2] = 3 to 5

* * *

Hi there, I'd appreciate the recorded IC50 for every entry that follows.
# MEASURED_TARGET: MEK1 (Homo sapiens, UniProt Q02750)
# Sequence (Q02750 whole entry, species assumed): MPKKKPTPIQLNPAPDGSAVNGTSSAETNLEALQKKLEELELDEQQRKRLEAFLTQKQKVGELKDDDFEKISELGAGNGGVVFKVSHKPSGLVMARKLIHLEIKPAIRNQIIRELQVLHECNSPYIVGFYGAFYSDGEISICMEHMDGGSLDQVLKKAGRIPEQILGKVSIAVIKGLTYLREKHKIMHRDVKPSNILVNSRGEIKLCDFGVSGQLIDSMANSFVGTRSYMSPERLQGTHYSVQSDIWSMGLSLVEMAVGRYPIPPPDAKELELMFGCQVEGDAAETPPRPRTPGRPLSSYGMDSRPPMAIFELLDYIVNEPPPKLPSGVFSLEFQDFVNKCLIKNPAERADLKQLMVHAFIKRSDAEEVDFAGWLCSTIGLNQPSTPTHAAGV
# PROTOCOL_TEXT: In vitro inhibition of MEK1
# Format: biochemical
Please state the figure in nM; there is no need to write the unit.

IC50 measured on O=C(NOCCOCCOCCOCCN(CCO)c1nc(N2CCOCC2)nc(-n2c(C(F)F)nc3ccccc32)n1)c1ccc(F)c(F)c1Nc1ccc(I)cc1F = 352

IC50 measured on O=C(NOCCOCCOCCOCCNc1nc(N2CCOCC2)nc(-n2c(C(F)F)nc3ccccc32)n1)c1ccc(F)c(F)c1Nc1ccc(F)cc1F = 124

IC50 measured on O=C(O)CCOCCOCCOCCONC(=O)c1ccc(F)c(F)c1Nc1ccc(I)cc1F = 72.3
